test system: NCI-H23; experiment: NCI tumour cell line growth inhibition, 48 h
Calls of active or inactive are those of the source. Rule as the data show it: active = GI50 up to about 1.1 µM and inactive = higher.
Documented GI50 across a set of compounds

Compound	GI50
COc1ccc(C2(O)c3ccccc3C(=O)N(C)C2(O)c2ccc(OC)cc2)cc1 (stereo unspecified)	> 100 µM (inactive)
Cc1cc([N+](=O)[O-])ccc1/N=N/C(=O)NNc1ccc([N+](=O)[O-])cc1C	17.3 µM (inactive)
COc1ccc(C2OC(=O)c3ccc4ccccc4c32)c(C)c1 (stereo unspecified)	9.53 µM (inactive)
CC(C)(C)c1cc(COc2c3sc(=S)sc3c(OCc3cc(C(C)(C)C)cc(C(C)(C)C)c3)c3sc(=S)sc23)cc(C(C)(C)C)c1	> 100 µM (inactive)
O=C1/C(=C/c2cccc([N+](=O)[O-])c2)N=C(c2ccccc2)N1c1ccc2c(c1)Sc1cc(N3C(=O)/C(=C/c4cccc([N+](=O)[O-])c4)N=C3c3ccccc3)ccc1N2	30.8 µM (inactive)
Cc1ccc(NC(=O)CC(=O)N2N=C(N(CCC#N)c3cccc(C)c3)CC2c2ccccc2)cc1 (stereo unspecified)	> 100 µM (inactive)
CN(Cc1cnc2nc(N)nc(N)c2n1)c1ccc(C(=O)NC(CO)CCCO)cc1 (stereo unspecified)	> 100 µM (inactive)
CC(=O)Oc1ccc2c3c1O[C@H]1[C@H](O)CC[C@@]4(O)[C@@H](C2)N(C)CC[C@]314	> 100 µM (inactive)
COC(=O)C1=C(OC(=O)/C(=C/c2ccc(Cl)cc2Cl)c2ccc(Cl)cc2Cl)C(C(=O)OC)[C@@]2(O)[C@@H](C(=O)OC)[C@H](C)C[C@@H]1[C@@H]2C(=O)OC (stereo partly specified)	> 100 µM (inactive)
OC1CC2CCCN(CCc3c1[nH]c1ccccc31)C2 (stereo unspecified)	> 100 µM (inactive)
CC(C)(C)c1ccc2c(c1)OP1(Oc3cccc4cccnc34)(O2)Oc2ccc(C(C)(C)C)cc2O1	3.05 µM (inactive)
O=C(CSc1nnc(SCC(=O)NN=C2CCCCC2)s1)NN=C1CCCCC1	> 100 µM (inactive)
COc1cc(C2=NN(C)C(c3ccc([N+](=O)[O-])o3)C2)cc(OC)c1OC (stereo unspecified)	> 100 µM (inactive)
O=c1c(Cl)cc2nc3ccccc3sc-2c1Cl	11 µM (inactive)
CC(C)=CC(=O)O[C@H]1C(=O)O[C@@H]2C[C@H]3[C@H](C)C(=O)C(O[C@@H]4O[C@H](CO)[C@@H](O)[C@H](O)[C@H]4O)=C[C@]3(C)[C@H]3[C@@H](O)[C@H](O)[C@]4(C(=O)O)OC[C@]32[C@@H]14 [BRUCEOSIDE D]	56.1 µM (inactive)
O=C(NCCCCCN1CCC2(CCCCC2)CC1)C(C1CCCCC1)C1CCCCC1	3.1 µM (inactive)
